These data points were gathered from the supplement of paper PMC12338614.

Answer each item with its documented STK11 functional score.
B1: library; numbered along this chain (parent)
chain: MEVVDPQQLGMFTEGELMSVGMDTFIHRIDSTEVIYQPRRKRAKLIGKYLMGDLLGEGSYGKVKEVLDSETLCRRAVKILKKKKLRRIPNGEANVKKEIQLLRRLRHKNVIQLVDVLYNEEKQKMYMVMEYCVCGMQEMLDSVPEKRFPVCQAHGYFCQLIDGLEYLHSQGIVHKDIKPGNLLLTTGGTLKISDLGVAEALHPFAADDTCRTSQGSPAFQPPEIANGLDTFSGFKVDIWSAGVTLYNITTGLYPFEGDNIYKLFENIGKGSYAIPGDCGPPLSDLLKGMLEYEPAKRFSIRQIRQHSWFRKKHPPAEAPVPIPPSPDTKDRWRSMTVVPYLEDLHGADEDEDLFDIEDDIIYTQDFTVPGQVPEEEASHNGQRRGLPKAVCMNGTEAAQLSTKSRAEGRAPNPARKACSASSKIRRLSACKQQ

Variants of: B1
Assay: STK11 functional score (HeLa growth suppression), rescaled enrichment; synonymous median = 1, nonsense median = 0 (normalised score)
Conditions: with HeLa; variant type: missense
The reply should be a number, written without any unit.

Exercise: State, in one line, measured STK11 functional score of P275K
Key: 1.45

Exercise: State, in one line, measured STK11 functional score of A398K
Key: 1.53

Exercise: State, in one line, measured STK11 functional score of D258S
Key: 1.42

Exercise: State, in one line, measured STK11 functional score of K44R
Key: 1.12

Exercise: State, in one line, measured STK11 functional score of A398W
Key: 0.886

Exercise: State, in one line, measured STK11 functional score of G270P
Key: 1.43

Exercise: State, in one line, measured STK11 functional score of G268I
Key: 1.65

Exercise: State, in one line, measured STK11 functional score of E407R
Key: 1.52

Exercise: State, in one line, measured STK11 functional score of H313Y
Key: 0.272

Exercise: State, in one line, measured STK11 functional score of R304A
Key: 1.49

Exercise: State, in one line, measured STK11 functional score of G394N
Key: 0.969

Exercise: State, in one line, measured STK11 functional score of F298P
Key: 1.16

Exercise: State, in one line, measured STK11 functional score of P144G
Key: 1

Exercise: State, in one line, measured STK11 functional score of L290F
Key: 0.664

Exercise: State, in one line, measured STK11 functional score of R211V
Key: 1.35

Exercise: State, in one line, measured STK11 functional score of P411D
Key: 1.59

Exercise: State, in one line, measured STK11 functional score of N259V
Key: 0.437

Exercise: State, in one line, measured STK11 functional score of T71Q
Key: 1.58

Exercise: State, in one line, measured STK11 functional score of Q214I
Key: 1.05

Exercise: State, in one line, measured STK11 functional score of Y166G
Key: 1.23

Exercise: State, in one line, measured STK11 functional score of T209F
Key: 0.568

Exercise: State, in one line, measured STK11 functional score of D176S
Key: -0.0857

Exercise: State, in one line, measured STK11 functional score of G180C
Key: 1.09

Exercise: State, in one line, measured STK11 functional score of H313W
Key: 1.05

Exercise: State, in one line, measured STK11 functional score of G288A
Key: 0.95

Exercise: State, in one line, measured STK11 functional score of R415M
Key: 1.4

Exercise: State, in one line, measured STK11 functional score of V143I
Key: 1.09

Exercise: State, in one line, measured STK11 functional score of L245R
Key: -0.0758

Exercise: State, in one line, measured STK11 functional score of C132K
Key: 1.25

Exercise: State, in one line, measured STK11 functional score of I238V
Key: 1.21

Exercise: State, in one line, measured STK11 functional score of G56S
Key: 0.788

Exercise: State, in one line, measured STK11 functional score of S422Q
Key: 1.58

Exercise: State, in one line, measured STK11 functional score of K312Q
Key: 1.58

Exercise: State, in one line, measured STK11 functional score of G180L
Key: 1.02

Exercise: State, in one line, measured STK11 functional score of F298V
Key: 0.839

Exercise: State, in one line, measured STK11 functional score of K62V
Key: 1.61

Exercise: State, in one line, measured STK11 functional score of L427Y
Key: 0.805

Exercise: State, in one line, measured STK11 functional score of S59R
Key: 1.5

Exercise: State, in one line, measured STK11 functional score of A429G
Key: 1.12

Exercise: State, in one line, measured STK11 functional score of K262Y
Key: 1.29

Exercise: State, in one line, measured STK11 functional score of I79E
Key: 0.0444

Exercise: State, in one line, measured STK11 functional score of Y156G
Key: 0.044

Exercise: State, in one line, measured STK11 functional score of P221C
Key: 0.759

Exercise: State, in one line, measured STK11 functional score of G187W
Key: 1.65

Exercise: State, in one line, measured STK11 functional score of P281C
Key: 0.746

Exercise: State, in one line, measured STK11 functional score of L201G
Key: 0.745
